System: BV2 cells
Assay: MTT assay, LPS-induced inflammatory response
Type: cell-based, mouse
Conditions: BV2, treatment 1.0 μg/ml, inducer LPS 100 ng/ml
The following compounds are listed with their measured MTT (% of control) values.
parameter_measured: MTT (% of control)

compound | parameter_measured | observed_result
C[C@H]1O[C@@H](O[C@H]2CC[C@@]3(C)[C@@H](CC[C@]4(C)[C@@H]3C=C[C@]35OC[C@@]6(CCC(C)(C)C[C@H]63)[C@H](O)C[C@]54C)[C@]2(C)CO)[C@H](O)[C@@H](O[C@@H]2O[C@H](CO)[C@@H](O)[C@H](O)[C@H]2O)[C@H]1O [saikosaponin D] | MTT (% of control) | 86.73 ± 1.25 % of control
C[C@H]1O[C@@H](O[C@H]2CC[C@@]3(C)[C@@H](CC[C@]4(C)[C@@H]3C=C[C@]35OC[C@@]6(CCC(C)(C)C[C@H]63)[C@@H](O)C[C@]54C)[C@]2(C)CO)[C@H](O)[C@@H](O[C@@H]2O[C@H](CO)[C@@H](O)[C@H](O)[C@H]2O)[C@H]1O [saikosaponin A] | MTT (% of control) | 91.49 ± 6.20 % of control
CO[C@@H]1C=C2[C@@H]3CC(C)(C)CC[C@]3(CO)[C@H](O)C[C@@]2(C)[C@]2(C)CC[C@H]3[C@](C)(CO)[C@@H](O[C@@H]4O[C@H](C)[C@H](O)[C@H](O[C@@H]5O[C@H](CO)[C@@H](O)[C@H](O)[C@H]5O)[C@H]4O)CC[C@]3(C)[C@@H]12 [saikosaponin B4] | MTT (% of control) | 87.12 ± 2.56 % of control
C[C@H]1O[C@@H](O[C@H]2CC[C@@]3(C)[C@@H](CC[C@]4(C)[C@@H]3C=CC3=C5CC(C)(C)CC[C@]5(CO)[C@H](O)C[C@]34C)[C@]2(C)CO)[C@H](O)[C@@H](O[C@@H]2O[C@H](CO)[C@@H](O)[C@H](O)[C@H]2O)[C@H]1O [saikosaponin B2] | MTT (% of control) | 88.85 ± 6.48 % of control

----------
System: NF-kB p65/ReIA
Test: RT-PCR of NF-kB p65/ReIA mRNA, LPS-induced cells
Type: cell-based, mouse
Settings: BV2, treatment 1.0 μg/ml, LPS 100 ng/ml; negative control 100.00

molecule | p65/ReIA mRNA (% of control)
C[C@H]1O[C@@H](O[C@H]2CC[C@@]3(C)[C@@H](CC[C@]4(C)[C@@H]3C=C[C@]35OC[C@@]6(CCC(C)(C)C[C@H]63)[C@@H](O)C[C@]54C)[C@]2(C)CO)[C@H](O)[C@@H](O[C@@H]2O[C@H](CO)[C@@H](O)[C@H](O)[C@H]2O)[C@H]1O [saikosaponin A] | 40.38 ± 1.05 % of control
C[C@H]1O[C@@H](O[C@H]2CC[C@@]3(C)[C@@H](CC[C@]4(C)[C@@H]3C=CC3=C5CC(C)(C)CC[C@]5(CO)[C@H](O)C[C@]34C)[C@]2(C)CO)[C@H](O)[C@@H](O[C@@H]2O[C@H](CO)[C@@H](O)[C@H](O)[C@H]2O)[C@H]1O [saikosaponin B2] | 50.18 ± 2.67 % of control
CO[C@@H]1C=C2[C@@H]3CC(C)(C)CC[C@]3(CO)[C@H](O)C[C@@]2(C)[C@]2(C)CC[C@H]3[C@](C)(CO)[C@@H](O[C@@H]4O[C@H](C)[C@H](O)[C@H](O[C@@H]5O[C@H](CO)[C@@H](O)[C@H](O)[C@H]5O)[C@H]4O)CC[C@]3(C)[C@@H]12 [saikosaponin B4] | 53.70 ± 4.72 % of control
C[C@H]1O[C@@H](O[C@H]2CC[C@@]3(C)[C@@H](CC[C@]4(C)[C@@H]3C=C[C@]35OC[C@@]6(CCC(C)(C)C[C@H]63)[C@H](O)C[C@]54C)[C@]2(C)CO)[C@H](O)[C@@H](O[C@@H]2O[C@H](CO)[C@@H](O)[C@H](O)[C@H]2O)[C@H]1O [saikosaponin D] | 49.80 ± 3.54 % of control
